Test system: C8166
testSummary: Cell panel screen (CellTiter-Glo)
Assay type: cell-based, human
reportedConditions: C8166 (Leukemia), 20 micromolar, 72 hrs
readoutName: Percent Inhibition

Would you mind listing Percent Inhibition for each of the following compounds?
1. COc1c(CC=C(C)C)cc2c(=O)c3c(O)cc(O)cc3oc2c1O [gl-16]
2. COc1ccc2c(=O)c3c(O)cc(O)cc3oc2c1OC [Go-14]
3. CC1(C)C=Cc2cc3c(=O)c4c(O)cc(O)cc4oc3c(O)c2O1 [Go-11]
4. O=C(c1ccc(O)c(O)c1)c1c(O)cc(O)cc1O [gl-25]

Resp:
["77%", "2%", "71%", "3%"]

Would you mind listing Percent Inhibition for each of the following compounds?
1. COc1c(CC=C(C)C)cc2c(=O)c3c(O)cc(O)cc3oc2c1OC [gl-6]
2. CC(C)=CCc1c2c(c(O)c3c1O[C@]14C(=C[C@@H]5C[C@H]1C(C)(C)O[C@@]4(C/C=C(\C)CO)C5=O)C3=O)C=CC(C)(C)O2 [GB18]

Resp:
1. 41%
2. 99%

Would you mind listing Percent Inhibition for each of the following compounds?
1. CC(C)=CCc1c2c(c(O)c3c1OC14C(=CC5CC1C(C)(C)OC4(CC=C(C)C(=O)O)C5=O)C3=O)C=CC(C)(C)O2 (stereo not shown) [GB27]
2. CC(C)=CCc1c(O)cc2oc3ccc(O)cc3c(=O)c2c1O [Ge-1]

Resp:
["99%", "9%"]

Would you mind listing Percent Inhibition for each of the following compounds?
1. O=c1c2cc(O)ccc2oc2cccc(O)c12 [gl-20]
2. COC(=O)C1OC(Oc2cc(O)c3c(c2)OC(c2ccc(O)c(O)c2)CC3=O)C(O)C(O)C1O (stereo not shown) [gly-5]

Resp:
["76%", "-5%"]

Would you mind listing Percent Inhibition for each of the following compounds?
1. CC(C)=CCc1c2c(c3oc4c(O)c(O)ccc4c(=O)c3c1O)C=CC(C)(C)O2 [Compound C-6]
2. C=C(C)C(O)Cc1c(O)cc2oc3cc(O)c(O)c(CC=C(C)C)c3c(=O)c2c1O (stereo not shown) [bn-17, Bannaxanthone B]
3. CC(C)=CCC[C@@]1(C)C=Cc2c(O)c3c(c(CC=C(C)C)c2O1)O[C@]12C(=C[C@@H]4C[C@H]1C(C)(C)O[C@@]2(C/C=C(/C)C(=O)O)C4=O)C3=O [GB11]
4. COc1cc(O)c2c(=O)c3ccc(O)c(O)c3oc2c1CC=C(C)C [gl-17]
5. CC(C)=CCc1c(O)cc2oc3c(c(=O)c2c1O)C(CC=C(C)C)(CC=C(C)C)C(=O)C(O)=C3 [bn-2, Allanxanthone C]
6. CCOC1C2C(=O)c3c(O)c4c(c(CC=C(C)C)c3O[C@@]23[C@H]2C[C@@H]1C(=O)[C@]3(C/C=C(/C)C(=O)O)OC2(C)C)OC(C)(CCC=C(C)C)C=C4 (stereo partly shown) [GB19]

Resp:
12%
71%
99%
90%
86%
99%
